Data provenance: patent US20240109945A1

Target: G2PB
Assay: BLI
Hi there, I'd appreciate the recorded Kd for every entry that follows.
Please respond with the number in nM and leave the unit unwritten.

Query: Answer with reported Kd of Fbs1-3 (N159G.F177Y.E178R) (designed binder) MGSSHHHHHHHHSSGENLYFQSHMASQQEGLVPEGSADEERDHWQQFYFLSKRRRNLLRNPCGEEDLEGWSDVEHGGDGWRVEELPGDGGVEFTQDDSVKKYFASSYRWCRKAQVIDLQAEGYWEELLDTTQPAIVVKDWYSGRTDAGSLYELTVRLLSENEDVLAEFATGQVAVPEDGSWMEISHTFIDYGPGVRFVRFEHGGQDSVYWKGWFGARVTNSSVWVEP
Result: 540

Query: Quote Kd reported for Fbs1-8 (E153R.E154R.N159G.F177Y.E178R) (designed binder) MGSSHHHHHHHHSSGENLYFQSHMASQQEGLVPEGSADEERDHWQQFYFLSKRRRNLLRNPCGEEDLEGWSDVEHGGDGWRVRRLPGDGGVEFTQDDSVKKYFASSYRWCRKAQVIDLQAEGYWEELLDTTQPAIVVKDWYSGRTDAGSLYELTVRLLSENEDVLAEFATGQVAVPEDGSWMEISHTFIDYGPGVRFVRFEHGGQDSVYWKGWFGARVTNSSVWVEP please.
Result: 1190

Query: Give the value of Kd reported for the following: Fbs1-6 (E153R.N159G.F177Y.E178R) (designed binder) MGSSHHHHHHHHSSGENLYFQSHMASQQEGLVPEGSADEERDHWQQFYFLSKRRRNLLRNPCGEEDLEGWSDVEHGGDGWRVRELPGDGGVEFTQDDSVKKYFASSYRWCRKAQVIDLQAEGYWEELLDTTQPAIVVKDWYSGRTDAGSLYELTVRLLSENEDVLAEFATGQVAVPEDGSWMEISHTFIDYGPGVRFVRFEHGGQDSVYWKGWFGARVTNSSVWVEP
Result: 790

Query: Dear colleague, please send me the reported Kd for Fbs1-2 (F177Y.E178R) (designed binder) MGSSHHHHHHHHSSGENLYFQSHMASQQEGLVPEGSADEERDHWQQFYFLSKRRRNLLRNPCGEEDLEGWSDVEHGGDGWRVEELPGDNGVEFTQDDSVKKYFASSYRWCRKAQVIDLQAEGYWEELLDTTQPAIVVKDWYSGRTDAGSLYELTVRLLSENEDVLAEFATGQVAVPEDGSWMEISHTFIDYGPGVRFVRFEHGGQDSVYWKGWFGARVTNSSVWVEP when you can.
Result: 26800

Query: For the binder Fbs1-7 (E154R.N159G.F177Y.E178R) (designed binder) MGSSHHHHHHHHSSGENLYFQSHMASQQEGLVPEGSADEERDHWQQFYFLSKRRRNLLRNPCGEEDLEGWSDVEHGGDGWRVERLPGDGGVEFTQDDSVKKYFASSYRWCRKAQVIDLQAEGYWEELLDTTQPAIVVKDWYSGRTDAGSLYELTVRLLSENEDVLAEFATGQVAVPEDGSWMEISHTFIDYGPGVRFVRFEHGGQDSVYWKGWFGARVTNSSVWVEP , give its reported Kd.
Result: 1450

Query: State its Kd: Fbs1-1 (WT) (designed binder) MGSSHHHHHHHHSSGENLYFQSHMASQQEGLVPEGSADEERDHWQQFYFLSKRRRNLLRNPCGEEDLEGWSDVEHGGDGWRVEELPGDNGVEFTQDDSVKKYFASSFEWCRKAQVIDLQAEGYWEELLDTTQPAIVVKDWYSGRTDAGSLYELTVRLLSENEDVLAEFATGQVAVPEDGSWMEISHTFIDYGPGVRFVRFEHGGQDSVYWKGWFGARVTNSSVWVEP
Result: 27500
